From: ChEMBL document CHEMBL5724914

assay: The drug is tested on WLS-069 corresponding to human gut metagenome with ENA study accession number: PRJEB37062 and ENA sample accession number: ERS12561748 for biotransformation under anaerobic condition. The drug concentrations were measured over 9 timepoints collected between 0 and 24 hours of incubation by liquid-chromatography-coupled mass spectrometry (LC–MS); conditions: 2 µM; also: call rule not given here
readout: Bacterial Biotransformation

molecule: CCCC1O[C@@H]2C[C@H]3[C@@H]4CCC5=CC(=O)C=C[C@]5(C)[C@H]4[C@@H](O)C[C@]3(C)[C@]2(C(=O)CO)O1 (some centres undefined) [BUDESONIDE]
measurement: Compound metabolized
//
molecule: CC(=O)CC(c1ccccc1)c1c(O)c2ccccc2oc1=O (centres undefined)
measurement: Compound metabolized
//
molecule: C[C@@H]1C[C@H]2[C@@H]3CCC4=CC(=O)C=C[C@]4(C)[C@@]3(F)[C@@H](O)C[C@]2(C)[C@@]1(O)C(=O)CO
measurement: Compound NOT metabolized
//
molecule: CC(C)OC(=O)C(C)(C)Oc1ccc(C(=O)c2ccc(Cl)cc2)cc1 [FENOFIBRATE]
measurement: Compound NOT metabolized
